biological target: Succinate receptor 1 (Homo sapiens, UniProt Q9BXA5); test: Competitive binding affinity to N-terminal Nluc-tagged human succinate receptor 1 expressed in Flp-In-T-REx-293 cells assessed as inhibition constant incubated for 5 mins in the presence of TUG-2465 by BRET assay
Sequence (Q9BXA5 whole entry): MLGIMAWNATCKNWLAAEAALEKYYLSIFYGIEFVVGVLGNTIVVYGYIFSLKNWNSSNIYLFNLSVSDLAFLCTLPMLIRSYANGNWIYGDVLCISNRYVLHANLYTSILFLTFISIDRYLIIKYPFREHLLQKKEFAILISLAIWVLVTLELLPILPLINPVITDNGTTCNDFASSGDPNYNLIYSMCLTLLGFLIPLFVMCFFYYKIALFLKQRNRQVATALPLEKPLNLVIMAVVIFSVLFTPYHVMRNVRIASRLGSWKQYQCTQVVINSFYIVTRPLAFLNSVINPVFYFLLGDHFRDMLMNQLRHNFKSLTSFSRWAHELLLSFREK
property_measured: Ki (µM)
Your answer is read as µM, so omit the unit and give the number.

// field: Ki; key: O=C(O)CCc1cccc(Oc2ccc(Oc3cccc4cnccc34)cc2C(F)(F)F)c1 ; value = 7.94
